# Test system: Escherichia coli TOP10;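 note: peptides expressed intracellularly from a pBAD plasmid library in pooled LB shake-flask culture, induced with 0.3% L-arabinose, DNA abundance read by NGS, three biological replicates, DESeq2 with apeglm shrinkage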
# method: shrunken log2 fold change of peptide-encoding DNA abundance (4.5 h post-induction vs induction); higher = less antimicrobial activity (less host growth inhibition)
# condition_description: time post-induction: 4.5 h; library: site-saturation at positions 5, 18, 19, 20
Hi there, I'd appreciate the recorded shrunken log2 fold change for every entry that follows.
One number for each entry.

{"columns": ["macromolecule_sequence", "system_under_test", "assay_result"],
 "data": [
  ["RRIRGRPPRLPRPRPRPHIPPRP", "Escherichia coli TOP10", -0.101],
  ["RRIRHRPPRLPRPRPRPSWEPRP", "Escherichia coli TOP10", -0.0671],
  ["RRIRDRPPRLPRPRPRPLWRPRP", "Escherichia coli TOP10", 0.152],
  ["RRIRNRPPRLPRPRPRPQWDPRP", "Escherichia coli TOP10", -0.0901]
]}

Respectfully, I request shrunken log2 fold change for each entry included below.
1. RRIRSRPPRLPRPRPRPHYIPRP
2. RRIRMRPPRLPRPRPRPAPVPRP
3. RRIRVRPPRLPRPRPRPVVRPRP
4. RRIRVRPPRLPRPRPRPMEYPRP
5. RRIRFRPPRLPRPRPRPMAYPRP
6. RRIRFRPPRLPRPRPRPDCEPRP

1. -0.556
2. 0.764
3. 0.129
4. -0.0697
5. -0.0672
6. 0.175

Respectfully, I request shrunken log2 fold change for each entry included below.
1. RRIRPRPPRLPRPRPRPNIVPRP
2. RRIRRRPPRLPRPRPRPIEWPRP
3. RRIRNRPPRLPRPRPRPDHCPRP
4. RRIRGRPPRLPRPRPRPPQAPRP

1. -0.342
2. 0.375
3. 0.0463
4. 1.58

Respectfully, I request shrunken log2 fold change for each entry included below.
1. RRIRLRPPRLPRPRPRPFWVPRP
2. RRIRFRPPRLPRPRPRPSSAPRP
3. RRIRMRPPRLPRPRPRPTCLPRP
4. RRIRNRPPRLPRPRPRPIVMPRP
5. RRIRGRPPRLPRPRPRPGWCPRP
6. RRIRDRPPRLPRPRPRPNYEPRP
7. RRIRTRPPRLPRPRPRPYLMPRP

1. -0.11
2. -0.0032
3. 0.413
4. -0.0105
5. 0.484
6. -0.252
7. -0.601

Respectfully, I request shrunken log2 fold change for each entry included below.
1. RRIRTRPPRLPRPRPRPFTYPRP
2. RRIRDRPPRLPRPRPRPCCQPRP
3. RRIRHRPPRLPRPRPRPMPEPRP
4. RRIRSRPPRLPRPRPRPCIPPRP
5. RRIRWRPPRLPRPRPRPPTTPRP

1: -0.00136; 2: -0.0183; 3: 0.283; 4: -0.417; 5: 0.277

Respectfully, I request shrunken log2 fold change for each entry included below.
1. RRIRYRPPRLPRPRPRPAWWPRP
2. RRIRLRPPRLPRPRPRPQYEPRP
3. RRIRTRPPRLPRPRPRPPQQPRP
4. RRIRARPPRLPRPRPRPNHHPRP
5. RRIRLRPPRLPRPRPRPTIFPRP
6. RRIRNRPPRLPRPRPRPTIWPRP

1: 0.365; 2: -0.166; 3: 0.211; 4: -0.223; 5: 0.205; 6: -0.23

Cited source: the supplement of paper PMC9112550
